Catalogue of Bond results values
- assay.system: Class I HLA molecule B*0702 in recombinant form (UniProt P01889 25-302)
- protocol.details: iTopia ELISA-like peptide-HLA binding
- Source text: In order to identify and validate the immunogenic epitopes of the protein VK3-20, the iTopia™ high-throughput Epitope Discovery System was used (Beckman Coulter).
All answers are understood in %, so give the number only.

{"columns": ["binder", "Bond results / %"],
 "data": [
  ["IVLTQSPGT [VK3-20 peptide No 2 IVLTQSPGT]", 1]
]}

Fill blank: measured Bond results of the binder RTFGQGTKV [VK3-20 peptide No 97 RTFGQGTKV] is ____. 1

Fill blank: measured Bond results of the binder SPRTFGQGT [VK3-20 peptide No 95 SPRTFGQGT] is ____. 41

Fill blank: measured Bond results of the binder VLTQSPGTL [VK3-20 peptide No 3 VLTQSPGTL] is ____. 0

Fill blank: measured Bond results of the binder RLLIYGASS [VK3-20 peptide No 46 RLLIYGASS] is ____. 0

Fill blank: measured Bond results of the binder VSSSYLAWY [VK3-20 peptide No 29 VSSSYLAWY] is ____. 1
